- Tested on: JAK2^V617F mutant cell lines
- protocol: MTT assay for cell proliferation, summary of panel
- Assay type: cell-based
- condition-context: summary of Table S7; read-out: anti-proliferative IC50 on JAK2^V617F mutant cell lines
property-measured: IC50

Dear colleague, please send me the reported IC50 for Cc1cnc(Nc2ccc(N3CCC(N(C)CCO)CC3)c(F)c2)nc1-c1cnn(C(C)C)c1 [FM] when you can.
< 500 nM

* * *

- protocol: PK and tissue distribution after repeated oral administration in Ba/F3-EPOR-JAK2^V617F tumor-bearing mice
- Type: in vivo
- condition-context: BALB/c nude, mouse, muscle, oral, 30 mg/kg; repeated; 8 h; read-out: FM concentration, Muscle
property-measured: concentration at 8 h (ng/g)
Enter your answer as a number in ng/g; do not include the unit.

Report measured concentration at 8 h; entry is Cc1cnc(Nc2ccc(N3CCC(N(C)CCO)CC3)c(F)c2)nc1-c1cnn(C(C)C)c1 [FM]
85

* * *

- protocol: PK and tissue distribution after repeated oral administration in Ba/F3-EPOR-JAK2^V617F tumor-bearing mice
- Format: in vivo
- condition-context: BALB/c nude, mouse, heart, oral, 30 mg/kg; repeated; 0 h; read-out: FM concentration, Heart
property-measured: concentration at 0 h (ng/g)
Quick note: give the figure in ng/g, leave out the unit.

# return recorded concentration at 0 h for entry Cc1cnc(Nc2ccc(N3CCC(N(C)CCO)CC3)c(F)c2)nc1-c1cnn(C(C)C)c1 [FM]
7.06

* * *

- protocol: PK and tissue distribution after single oral administration in Ba/F3-EPOR-JAK2^V617F tumor-bearing mice
- Type: in vivo
- condition-context: BALB/c nude, mouse, kidney, oral, 30 mg/kg; single; 0.5 h; read-out: FM concentration, Kidney
property-measured: concentration at 0.5 h (ng/g)
The answer is to be given in ng/g; state only the numeric part.

Consider the molecule Cc1cnc(Nc2ccc(N3CCC(N(C)CCO)CC3)c(F)c2)nc1-c1cnn(C(C)C)c1 and give its recorded concentration at 0.5 h.
12100

* * *

- protocol: PK and tissue distribution after repeated oral administration in Ba/F3-EPOR-JAK2^V617F tumor-bearing mice
- Format: in vivo
- condition-context: BALB/c nude, mouse, heart, oral, 30 mg/kg; repeated; 4 h; read-out: FM concentration, Heart
property-measured: concentration at 4 h (ng/g)
Only the number, expressed in ng/g, is required.

Indicate the recorded concentration at 4 h value for this molecule: Cc1cnc(Nc2ccc(N3CCC(N(C)CCO)CC3)c(F)c2)nc1-c1cnn(C(C)C)c1
578

* * *

- protocol: PK and tissue distribution after single oral administration in Ba/F3-EPOR-JAK2^V617F tumor-bearing mice
- Type: in vivo
- condition-context: BALB/c nude, mouse; Plasma; single oral 30 mg/kg
property-measured: AUC(0-t)
Hey, just the number and the unit after it is fine.

Look up and report measured AUC(0-t) for this entry: Cc1cnc(Nc2ccc(N3CCC(N(C)CCO)CC3)c(F)c2)nc1-c1cnn(C(C)C)c1
2990 ng·h/mL

* * *

- protocol: PK and tissue distribution after repeated oral administration in Ba/F3-EPOR-JAK2^V617F tumor-bearing mice
- Assay type: in vivo
- condition-context: BALB/c nude, mouse, brain, oral, 30 mg/kg; repeated; 0.5 h; read-out: FM concentration, Brain
property-measured: concentration at 0.5 h (ng/g)
Write the answer as a number in ng/g, unit excluded.

Let me know recorded concentration at 0.5 h for Cc1cnc(Nc2ccc(N3CCC(N(C)CCO)CC3)c(F)c2)nc1-c1cnn(C(C)C)c1 , thanks.
283
